Just for reference, paper PMC11943723 is where these values come from.

# Lookup of reported EC50 at 24 h keyed by entry
Assay: MTT cell viability assay, BEAS-2B normal cells
Assay type: cell-based
Settings: human, BEAS-2B normal bronchial epithelial cells, 24 h incubation, read-out: Cytotoxicity EC50, BEAS 2B
endpoint: EC50 at 24 h

>>> df
                                        mol      endpoint  test_result
0  Cc1ccc(-c2nc(N)sc2SS[C@@H]2OC[C@@H](O)[C@H](O)[C@H]2O)cc1.Cl  EC50 at 24 h      > 25 µM
1  CC(=O)O[C@@H]1[C@@H](OC(C)=O)[C@H](SSc2sc(N)nc2-c2ccc(Br)cc2)OC[C@H]1OC(C)=O  EC50 at 24 h      19.9 µM
2  COc1ccc(-c2nc(N)sc2SSc2sc(N)nc2-c2ccc(OC)cc2)cc1  EC50 at 24 h      > 25 µM
3  CC(=O)O[C@@H]1[C@@H](OC(C)=O)[C@H](SSc2sc(N)nc2-c2ccccc2)OC[C@H]1OC(C)=O  EC50 at 24 h      > 25 µM

###

System: HeLa (cervical cancer)
Experiment: MTT cell viability assay, HeLa
Assay type: cell-based, human
Settings: 24 h incubation, read-out: Cytotoxicity EC50, HeLa
Protocol: Human erythrocytes were purchased from the blood transfusion station Vladivostok. […] The effect of the studied compounds on the viability of human cancer and normal cells was determined using the MTT (3-[4,5-dimethylthiazol-2-yl]-2,5 diphenyl tetrazolium bromide) assay. […] The absorbance of the converted formazan dye was measured using a Multiskan FC microplate photometer (Thermo Scientific, Waltham, MA, USA) at a wavelength of 570 nm. […]
endpoint: EC50 (µM)

                                        mol            study_target  endpoint  unit  test_result
0  CC(=O)OC[C@H]1O[C@@H](SSc2sc(N)nc2-c2ccc(C)cc2)[C@H](OC(C)=O)[C@@H](OC(C)=O)[C@@H]1OC(C)=O  HeLa (cervical cancer)      EC50    µM         18.5
